- target_of_assay: UniProt:P15144
- Sequence (P15144 whole entry): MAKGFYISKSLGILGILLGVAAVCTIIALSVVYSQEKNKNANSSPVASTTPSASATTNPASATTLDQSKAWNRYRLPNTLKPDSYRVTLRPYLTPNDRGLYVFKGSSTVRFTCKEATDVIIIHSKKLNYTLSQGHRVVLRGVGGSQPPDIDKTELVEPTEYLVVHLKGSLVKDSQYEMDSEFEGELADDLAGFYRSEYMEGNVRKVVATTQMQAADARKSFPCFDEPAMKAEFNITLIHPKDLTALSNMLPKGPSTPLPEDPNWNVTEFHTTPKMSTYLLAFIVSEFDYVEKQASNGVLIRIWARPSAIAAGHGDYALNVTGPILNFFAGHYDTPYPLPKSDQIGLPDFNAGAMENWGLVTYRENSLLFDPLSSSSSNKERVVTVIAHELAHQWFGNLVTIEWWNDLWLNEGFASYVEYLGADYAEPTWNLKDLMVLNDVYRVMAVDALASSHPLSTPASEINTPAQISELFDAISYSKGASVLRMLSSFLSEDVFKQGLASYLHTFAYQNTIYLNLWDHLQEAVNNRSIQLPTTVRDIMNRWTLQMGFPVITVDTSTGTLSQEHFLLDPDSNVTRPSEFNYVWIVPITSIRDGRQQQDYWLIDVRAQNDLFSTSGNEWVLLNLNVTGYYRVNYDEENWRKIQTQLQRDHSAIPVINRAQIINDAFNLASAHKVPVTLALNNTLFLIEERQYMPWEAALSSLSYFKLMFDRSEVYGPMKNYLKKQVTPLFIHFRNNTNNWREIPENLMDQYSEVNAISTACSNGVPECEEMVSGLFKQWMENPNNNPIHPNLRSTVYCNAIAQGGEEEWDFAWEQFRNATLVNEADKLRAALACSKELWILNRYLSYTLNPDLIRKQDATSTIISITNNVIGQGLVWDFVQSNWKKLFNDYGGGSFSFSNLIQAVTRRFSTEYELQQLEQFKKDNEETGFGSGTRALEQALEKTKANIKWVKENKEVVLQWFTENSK
pIC50: −log10 of the molar value.

compound	pIC50
O=C(O)CNC(=O)C(CS)Cc1ccccc1 (stereo not shown)	< 4.00

====

- target_of_assay: Neprilysin (NEP) (Homo sapiens)
- Construct: purchased Enzo Life Sciences
- Sequence (P08473 whole entry, species assumed): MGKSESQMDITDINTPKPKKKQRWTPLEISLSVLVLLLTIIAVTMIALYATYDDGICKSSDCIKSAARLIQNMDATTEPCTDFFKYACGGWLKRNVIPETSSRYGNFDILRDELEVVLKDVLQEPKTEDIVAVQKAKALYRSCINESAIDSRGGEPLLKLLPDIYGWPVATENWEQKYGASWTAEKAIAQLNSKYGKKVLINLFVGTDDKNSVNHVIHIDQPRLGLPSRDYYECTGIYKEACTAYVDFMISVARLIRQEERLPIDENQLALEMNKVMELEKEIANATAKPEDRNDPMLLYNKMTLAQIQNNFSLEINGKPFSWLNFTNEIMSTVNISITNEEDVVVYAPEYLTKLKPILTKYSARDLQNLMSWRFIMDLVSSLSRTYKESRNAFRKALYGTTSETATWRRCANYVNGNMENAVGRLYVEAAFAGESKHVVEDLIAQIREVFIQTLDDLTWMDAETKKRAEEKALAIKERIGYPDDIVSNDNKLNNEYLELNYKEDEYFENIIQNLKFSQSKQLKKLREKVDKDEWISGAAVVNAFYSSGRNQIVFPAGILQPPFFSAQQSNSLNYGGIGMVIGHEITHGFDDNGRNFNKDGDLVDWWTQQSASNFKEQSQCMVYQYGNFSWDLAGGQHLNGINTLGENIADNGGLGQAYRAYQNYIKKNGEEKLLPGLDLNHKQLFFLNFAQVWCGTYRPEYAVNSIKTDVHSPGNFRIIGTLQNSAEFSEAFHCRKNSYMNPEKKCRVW
- method_notes: Neprilysin inhibition assay (Mca-[…](Dpn) FRET substrate)
- Type: biochemical
- test_parameters: inhibitor 10 μM; read-out: NEP @ 10 μM (percent inhibition)
- Procedure: Single concentration studies at 10 μM: Neprilysin inhibition assays were performed as described previously. The substrate Mca-[…](Dpn) and endopeptidase NEP were purchased from Enzo Life Sciences. […] Mca fluorescence is quenched by Dpn until cleavage at Phe by NEP. The accumulation of the Mca was measured by exciting at 320 nm and reading the fluorescence at 405 nm on a Molecular Devices M5e plate reader for 40 minutes at room temperature. […]
Listing: inhibition at 10 µM of selected compounds

compound	target_of_assay	inhibition at 10 µM / %
O=C(O)CNC(=O)C(CS)Cc1ccccc1 (stereo not shown) [Thiorphan]	Neprilysin (NEP) (Homo sapiens)	90
CC(C)C[C@H](NC(=O)[C@@H](O)[C@H](N)Cc1ccccc1)C(=O)O [Bestatin]	Neprilysin (NEP) (Homo sapiens)	0
CNC(=O)[C@H](Cc1ccccc1)NC(=O)[C@H](CC(C)C)[C@H](CSc1cccs1)C(=O)NO [Batimastat]	Neprilysin (NEP) (Homo sapiens)	60
CC(C)C[C@@H](C(=O)N[C@H](C(=O)OC1CCCC1)c1ccccc1)[C@H](O)C(=O)NO [Tosedostat]	Neprilysin (NEP) (Homo sapiens)	79
